- measured_target: DNA polymerase beta (full-length) (Homo sapiens) (UniProt P06746)
- experimental_details: EMSA
- condition_description: 5'-phosphate on strand 3; EMSA: 20 nM NCP, 20 mM HEPES pH 7.5, 100 mM NaCl, 1 mM EDTA, 1 mM DTT, 0.1 mg/ml BSA, 20 min, 4 °C; 5% native PAGE, 0.2x TBE
recorded_metric: Kd (nM)

[[record]]
sequence_record = "ATCGGATGTATATATCTGACACGTGCCTGGAGACTAGGGAGTAATCCCCTTGGCGGTTAAAACGCGGGGGACAGCGCGTACGTGCGTTTAAGCGGTGCTAGAGCTGTCTACGACCAATTGAGCGGCCTCGGCACCGGGATTCTCGAT / ATCGAGAATCCCGGTGCCGAGGCCGCTCAATTGGTCGTAGACAGCTCTAGCACCGCTTAAACGCACGTACGCGCTGTCCCCCGCGTTTTAACCGCCAAGGGGATTACTCCCTAGT / TCCAGGCACGTGTCAGATATATCCATCCGAT [Gap-NCP-4.5+2]"
recorded_metric = "Kd"
obs_value = 137

[[record]]
sequence_record = "ATCGGATGTATATATCTGACACGTGCCTGGAGACTAGGGAGTAATCCCCTTGGCGGTTAAAACGCGGGGGACAGCGCGTACGTGCGTTTAAGCGGTGCTAGAGCTGTCTACGACCAATTGAGCGGCCTCGGCACCGGGATTCTCGAT / ATCGAGAATCCCGGTGCCGAGGCCGCTCAATTGGTCGTAGACAGCTCTAGCACCGCTTAAACGCACGTACGCGCTGTCCCCCGCGTTTTAACCGCCAAGGGGATTACTCCCTAGTCT / CAGGCACGTGTCAGATATATACATCCGAT [Gap-NCP-4.5]"
recorded_metric = "Kd"
obs_value = 98

[[record]]
sequence_record = "ATCGGATGTATATATCTGACACGTGCCTGGAGACTAGGGAGTAATCCCCTTGGCGGTTAAAACGCGGGGGACAGCGCGTACGTGCGTTTAAGCGGTGCTAGAGCTGTCTACGACCAATTGAGCGGCCTCGGCACCGGGATTCTCGAT / ATCGAGAATCCCGGTGCCGAGGCCGCTCAATTGGTCGTAGACAGCTCTAGCACCGCTTAAACGCACGTACGCGCTGTCCCCCGCGTTTTAACCGCCAAGGGGATTACTCCCTAG / CTCCAGGCACGTGTCAGATATATCCATCCGAT [Gap-NCP-4.5+3]"
recorded_metric = "Kd"
obs_value = 115

